Biological target: T1, rat PAI-1 (rat, UniProt P20961 24-402)
T1 sequence: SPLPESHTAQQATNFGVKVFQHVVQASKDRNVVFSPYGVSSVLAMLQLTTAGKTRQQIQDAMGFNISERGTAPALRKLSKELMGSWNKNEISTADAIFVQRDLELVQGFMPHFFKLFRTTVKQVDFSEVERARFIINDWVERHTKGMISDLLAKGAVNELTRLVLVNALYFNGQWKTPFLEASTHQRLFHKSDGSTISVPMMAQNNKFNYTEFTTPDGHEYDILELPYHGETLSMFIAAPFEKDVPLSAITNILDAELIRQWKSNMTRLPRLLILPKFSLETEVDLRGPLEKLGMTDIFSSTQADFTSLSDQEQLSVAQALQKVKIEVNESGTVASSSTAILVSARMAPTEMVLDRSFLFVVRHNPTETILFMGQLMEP
Assay: cell-based or functional assay
MEASURED ATTRIBUTE: IC50 chromogenic (nM)
Answers are plain numbers, in nM.

1. Antibody 08, scFv (scFv, V domains shown) VH: QVQLVQSGAEVKKPGSSVKVSCKASGGTFSSYAISWVRQAPGQGLEWMGGIIPTFGTANYAQKFQGRVTITADESTSTAYMELSSLRSEDTAVYYCARERRQWLEGHFDYWGRGTLVTVSS VL: DIQMTQSPSTLSASVGDRVTITCRASEGIYHNLAWYQQKPGKAPKLLIYKASSLASGVPSRFSGSRSGTEFTLTISSLQPDDFATYYCQQYSNYPLTFGGGTKVEIK ... 3

Okay, now this binder:
Recorded result, Antibody 12, scFv (scFv, V domains shown) VH: QVQLQQSGAEVKKPGSSVKVSCKASGGTFSSYAISWVRQAPGQGLEWMGGIIPTFPTANYAQKFQGRVTITADESTSTAYMELSGLRSEDTAVYYCAREKRQWLEGHFDYWGRGTPVTVSS VL: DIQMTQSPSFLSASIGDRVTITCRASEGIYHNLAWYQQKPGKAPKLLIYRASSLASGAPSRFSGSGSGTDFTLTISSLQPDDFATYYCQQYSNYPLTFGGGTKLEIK , IC50 chromogenic: 78.2

Numbers sourced from patent US20120114652A1.
